experimental.target: DPP-IV from porcine kidney (Sus scrofa, UniProt P22411)
Sequence (P22411 whole entry): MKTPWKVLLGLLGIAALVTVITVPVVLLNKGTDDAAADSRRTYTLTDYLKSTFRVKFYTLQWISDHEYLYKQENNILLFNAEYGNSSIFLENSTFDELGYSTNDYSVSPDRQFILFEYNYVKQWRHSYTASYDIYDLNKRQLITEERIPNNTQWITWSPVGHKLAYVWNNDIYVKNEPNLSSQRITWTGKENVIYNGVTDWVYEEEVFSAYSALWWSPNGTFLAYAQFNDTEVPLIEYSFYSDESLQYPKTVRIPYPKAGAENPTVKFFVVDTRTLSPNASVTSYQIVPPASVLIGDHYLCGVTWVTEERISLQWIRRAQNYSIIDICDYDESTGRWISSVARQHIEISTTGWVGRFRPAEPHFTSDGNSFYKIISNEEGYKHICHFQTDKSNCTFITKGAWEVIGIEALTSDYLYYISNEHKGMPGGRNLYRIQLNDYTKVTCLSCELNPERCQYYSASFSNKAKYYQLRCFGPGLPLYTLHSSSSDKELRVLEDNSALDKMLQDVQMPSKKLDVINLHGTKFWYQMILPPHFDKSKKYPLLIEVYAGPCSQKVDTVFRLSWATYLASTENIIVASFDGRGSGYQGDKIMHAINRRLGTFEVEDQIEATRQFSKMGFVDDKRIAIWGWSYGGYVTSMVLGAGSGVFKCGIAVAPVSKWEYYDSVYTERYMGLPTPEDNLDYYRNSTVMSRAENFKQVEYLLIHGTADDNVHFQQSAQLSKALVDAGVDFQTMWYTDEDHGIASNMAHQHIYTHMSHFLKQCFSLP
Where a name gives a salt, the structure may show the parent alone.
I'd appreciate it if you could supply IC50 values for the items below.
Numbers only, in nM.

> print(dat)
                                   compound  reported.result
1  CC(C)=CCn1c(OCC(N)Cc2ccc(Cl)cc2)nc2c1c(=O)n(CC(=O)c1ccccc1)c(=O)n2C (stereo not shown)              460

The following compounds each have a reported value; give each one's IC50.
1. CC(C)=CCn1c(OC[C@H]2CCNC2)nc2c1c(=O)n(CC(=O)c1ccccc1)c(=O)n2C [Example 9, hydrochloride]
2. CC(C)=CCn1c(OC[C@@H]2CCNC2)nc2c1c(=O)n(CC(=O)c1ccccc1)c(=O)n2C [Example 10, hydrochloride]
3. CC(C)=CCn1c(OC[C@H](C)N)nc2c1c(=O)n(CC(=O)c1ccccc1)c(=O)n2C

Reply:
1. 120
2. 34
3. 28

These measurements were taken from patent US7879864B2.
